- Tested on: HIV-1 gp120 / PG9 antibody interaction
- protocol: binders of HIV-1 gp120 antibody PG9, primary screen, biochemical, TR-FRET (AID 624416)
- reported_conditions: TR-FRET gp120-PG9 antibody binding; at 6.7 µM
The campaign covered roughly 360,000 compounds. About 1,500 (0.42%) were called active. Rule as the data show it: active = inhibition above about 8.5%; inactive = the rest. For the sample, actives were picked, then their nearest neighbours and some compounds at random.
Answer with one of the outcomes active, inactive

{"columns": ["compound", "discrete_label"],
 "data": [
  ["CCn1c(SCC(=O)Nc2cc(C)ccc2C)nnc1-c1cnccn1", "inactive"],
  ["COc1cccc(CNC(=O)[C@H]2CCCN2C(=O)[C@H]2CCCN2C(=O)C2CCCCC2)c1", "inactive"],
  ["Cc1nnc(SCC(=O)NCc2cccs2)[nH]c1=O", "inactive"]
]}

Hi, sorry to bother you, what did the test record for O=C1COc2ccc(C(=O)COC(=O)c3ccccc3Cl)cc2N1 ?
active

Please let me know the test result on file for NC(=O)c1ncn([C@@H]2O[C@H](C(=O)O)[C@@H](O)[C@H]2O)n1 .
inactive
